All values here come from patent US20190390169A1.

The following compounds are shown together with reported inhibition at 1 µM values.
target: CDC2L6/CycC (CDK19) (Homo sapiens, UniProt Q9BWU1); construct: purchased Carna Biosciences; experiment: CDK19-inhibiting activity (Kinase Tracer-236 / Eu-anti-GST fluorescence assay); type: binding; settings: 1 μM test compound; read-out: rate of inhibition of CDK19
Sequence (Q9BWU1 whole entry): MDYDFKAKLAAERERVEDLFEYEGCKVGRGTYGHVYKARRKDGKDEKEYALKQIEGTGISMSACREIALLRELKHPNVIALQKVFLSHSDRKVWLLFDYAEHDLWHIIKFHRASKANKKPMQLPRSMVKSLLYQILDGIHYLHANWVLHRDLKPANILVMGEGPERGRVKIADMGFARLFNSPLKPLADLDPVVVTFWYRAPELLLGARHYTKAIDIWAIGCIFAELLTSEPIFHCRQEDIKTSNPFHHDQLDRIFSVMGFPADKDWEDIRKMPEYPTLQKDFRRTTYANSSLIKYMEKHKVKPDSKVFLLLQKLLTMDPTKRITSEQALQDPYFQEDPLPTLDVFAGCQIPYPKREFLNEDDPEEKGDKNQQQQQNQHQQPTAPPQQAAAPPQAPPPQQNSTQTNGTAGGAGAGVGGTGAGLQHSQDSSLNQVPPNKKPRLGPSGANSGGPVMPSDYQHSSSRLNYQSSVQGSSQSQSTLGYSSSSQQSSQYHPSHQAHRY
Sequence (P24863 whole entry partner): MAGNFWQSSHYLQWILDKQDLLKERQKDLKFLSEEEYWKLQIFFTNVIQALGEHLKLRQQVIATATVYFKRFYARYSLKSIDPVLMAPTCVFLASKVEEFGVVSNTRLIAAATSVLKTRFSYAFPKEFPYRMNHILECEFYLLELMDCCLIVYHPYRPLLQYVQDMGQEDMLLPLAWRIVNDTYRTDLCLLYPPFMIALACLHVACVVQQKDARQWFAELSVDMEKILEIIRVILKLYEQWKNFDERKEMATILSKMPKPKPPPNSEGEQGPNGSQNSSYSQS
Counter-ions that a name gives are not always drawn.
assayEndpoint: inhibition at 1 µM (%)

| compound | assayEndpoint | value |
| --- | --- | --- |
| NC(=O)c1ccc(-c2c[nH]c3ncccc23)cc1NCc1ccccc1 [Compound 3] | inhibition at 1 µM | 101 |
| CCCCNC(=O)c1ccc2cncc(-c3ccc(OC)cc3)c2n1 [Compound 6, trifluoroacetate] | inhibition at 1 µM | 100 |
| Oc1ccc(-c2n[nH]cc2-c2ccc3c(c2)OCCO3)c(O)c1 [Compound 5, reference compound] | inhibition at 1 µM | 86 |
| c1ccc(COc2cccc(-c3c[nH]c4ncccc34)c2)cc1 [Compound 4] | inhibition at 1 µM | 94 |
| CCCN(CCC)C(=O)c1ccc2cncc(-c3ccc(C)cc3)c2n1 [Compound 7, trifluoroacetate] | inhibition at 1 µM | 83 |
| Cn1ncc2c1-c1c(Oc3ccc(F)cc3F)sc(C(N)=O)c1CC2 [Compound 1] | inhibition at 1 µM | 99 |
| O=C1Nc2ccccc2N(S(=O)(=O)c2ccc(F)cc2)C1CCSc1ccc2nccn2n1 (stereo not shown) [Compound 2] | inhibition at 1 µM | 102 |
